Recorded values, source patent US20230391845A1.

Would you kindly list hGLP-1R CRE Luc EC50 (pM) for each of these binders?
target system: human glucagon-like peptide 1 receptor (human, UniProt P43220 24-463)
experiment: cell-based or functional assay
Where no end group is shown, it is not given here. [ ]: non-standard residue; d: D form. Aib = CC(C)(N)C(=O)O
I only need the number, in pM, no unit after it.

Query block: I'd like to know its hGLP-1R CRE Luc EC50 (pM). The binder in question is H[Aib]HGTFTSDYSYYLEKKAA[Aib]EFVQWLLEGGPSSGAPPPS-NH2 (not fully specified (residue 16); printed as H-Aib-HGTFTSDYSYYLE-K[(2S)-2-amino-6-[[(2S)-2-amino-6-[[(4S)-4-carboxy-4-(19-carboxynonadecanoylamino)butanoyl]amino]hexanoyl]amino]hexanoyl]-KAA-Aib-EFVQWLLEGGPSSGAPPPS-NH2) [Compound No. 31]
Result block: 3

Query block: I'd like to know its hGLP-1R CRE Luc EC50 (pM). The binder in question is H[Aib]HGTFTSDYSYYLEKQAA[Aib]EFVQWLLEGGPSSGAPPPS-NH2 (not fully specified (residue 16); printed as H-Aib-HGTFTSDYSYYLE-K[(2S)-2-amino-6-[[(2S)-2-amino-6-[[(4S)-4-carboxy-4-[[4-[(19-carboxynonadecanoylamino)methyl]cyclohexanecarbonyl]amino]butanoyl]amino]hexanoyl]amino]hexanoyl]-QAA-Aib-EFVQWLLEGGPSSGAPPPS-NH2) [Compound No. 25]
Result block: 4.6
